Below: a set of entries, each annotated with reported residual activity.
- Study Target: Angiopoietin-1 receptor (Homo sapiens)
- Cond: at 1 µM
Field: numeric (%). Do not append units.

N#C/C(=C(\N)Sc1ccc(N)cc1)c1ccccc1C(F)(F)F | 111
COc1cc2ncnc(N3CCN(C(=O)Nc4ccc(Oc5ccccc5)cc4)CC3)c2cc1OC | 69
COc1ccc(C(=O)Nc2sc3c(c2C(N)=O)CCCC3)cc1OC | 79
CNc1cc2c(Nc3cccc(Br)c3)ncnc2cn1 | 90
Oc1n[nH]c2nnc(-c3c(-c4ccccc4)nn4ccccc34)cc12 | 97

For Angiopoietin-1 receptor (Homo sapiens), give the measured residual activity of the entry c1ccc(-c2n[nH]cc2-c2ccnc3ccccc23)nc1
91

For Angiopoietin-1 receptor (Homo sapiens), give the measured residual activity of the entry O=C1NC(=O)c2c1c1c3ccccc3[nH]c1c1[nH]c3cc(Br)ccc3c21
94

For Angiopoietin-1 receptor (Homo sapiens), give the measured residual activity of the entry Cn1nc2c3c(cccc31)C(=O)c1ccccc1-2
104
